All values here come from patent US7767704B2.

Assay: Cytostatic effect on NHDF cells in the anti-HCMV cytopathogenicity test
Assay type: cell-based
Settings: NHDF cells (human prepuce fibroblasts), 6 days incubation, visual assessment, concentration at which no visible cytostatic effects are evident
Protocol: Anti-HCMV (Anti-human Cytomegalovirus) Cytopathogenicity Tests The test compounds are employed as 50 millimolar (mM) solutions in dimethyl sulphoxide (DMSO). Ganciclovir, foscarnet and cidofovir are used as reference compounds. […] The plates are then assessed visually using an overhead microscope (plaque multiplier from Technomara). […]
quantity_name: CC50 at 6 days

Worked cases, CC50 at 6 days given:
| compound_string | quantity_name | result |
| --- | --- | --- |
| Cc1cc(Cl)ccc1NC(=O)Nc1cn(CC2CC2)c(C(=O)NCCCN2CCOCC2)n1 | CC50 at 6 days | 25 µM |
| Cn1cc(NC(=O)Nc2ccc(OC(F)(F)F)cc2)nc1C(=O)NCCCC(F)(F)F | CC50 at 6 days | 31 µM |
| O=C(Nc1ccc(OC(F)(F)F)cc1)Nc1cn(Cc2ccc(C(F)(F)F)cc2)c(C(=O)NCCO)n1 | CC50 at 6 days | 9.4 µM |

## Input Entry COCCOCCCNC(=O)c1nc(NC(=O)Nc2ccc(Cl)cc2C)cn1CC=C(C)C : reported CC50 at 6 days = ?
## Output 6.25 µM

----------
Tested on: HCMV
Test: Anti-HCMV (anti-human cytomegalovirus) cytopathogenicity test
Type: cell-based
Conditions: Human betaherpesvirus 5, 144 h; HCMV-infected NHDF cells, M.O.I. 0.001-0.002, 6 days; inhibition of CPE by 50% vs untreated virus control
Method: Anti-HCMV (Anti-human Cytomegalovirus) Cytopathogenicity Tests The test compounds are employed as 50 millimolar (mM) solutions in dimethyl sulphoxide (DMSO). Ganciclovir, foscarnet and cidofovir are used as reference compounds. […] The plates are then assessed visually using an overhead microscope (plaque multiplier from Technomara). […]
quantity_name: pEC50
Please note pEC50 is a logarithmic value: minus log10 of concentration in mol/L. Answer with that number alone.

| compound_string | target_system | pEC50 |
| --- | --- | --- |
| O=C(Nc1ccc(OC(F)(F)F)cc1)Nc1cn(Cc2ccc(C(F)(F)F)cc2)c(C(=O)NCCOC(=O)CN2CCOCC2)n1 | HCMV | 8.55 |

## Input Find pEC50 (HCMV) for the entry Cc1cc(Cl)ccc1NC(=O)Nc1cn(CC2CC2)c(C(=O)NCCCN2CCOCC2)n1
## Output 8.52

## Input Requested read-out pEC50, target or system HCMV, entry COCCOCCCNC(=O)c1nc(NC(=O)Nc2ccc(Cl)cc2C)cn1CC=C(C)C
## Output 9.00

## Input Any idea what pEC50 came out for O=C(Nc1ccc(OC(F)(F)F)cc1)Nc1cn(Cc2ccc(C(F)(F)F)cc2)c(C(=O)NCCO)n1 on HCMV?
## Output 8.85

----------
Each entry below lists one item and its recorded pEC50 value.
Test system: HCMV
Assay: Anti-HCMV (anti-human cytomegalovirus) cytopathogenicity test
Assay type: cell-based
Settings: Human betaherpesvirus 5, 144 h; HCMV-infected NHDF cells, M.O.I. 0.001-0.002, 6 days; inhibition of CPE by 50% vs untreated virus control
Protocol: Anti-HCMV (Anti-human Cytomegalovirus) Cytopathogenicity Tests The test compounds are employed as 50 millimolar (mM) solutions in dimethyl sulphoxide (DMSO). Ganciclovir, foscarnet and cidofovir are used as reference compounds. […] The plates are then assessed visually using an overhead microscope (plaque multiplier from Technomara). […]
Scale note: pEC50 = -log10(concentration in M).

## Input Query: pEC50; subject: Cn1cc(NC(=O)Nc2ccc(OC(F)(F)F)cc2)nc1C(=O)NCCCC(F)(F)F
## Output 8.72

## Input Looking for the measured pEC50 of Cc1cc(Cl)ccc1NC(=O)Nc1cn(CC2CC2)c(C(=O)NCCCn2cccn2)n1 , can you help?
## Output 9.00

## Input Fill in the blank: the reported pEC50 of COc1ccc(C(C)NC(=O)c2nc(NC(=O)Nc3ccc(C)c(F)c3)cn2C)cn1 (stereo not shown) is ____.
## Output 9.30

## Input Find the recorded pEC50 belonging to COc1ccc(CNC(=O)c2nc(NC(=O)Nc3ccc(OC(F)(F)F)cc3)cn2CC2CC2)cc1 and report it.
## Output 9.00
